These data points were gathered from ChEMBL document CHEMBL3860050.

target: ATP-dependent translocase ABCB1 (Homo sapiens); experiment: Inhibition of MDR1-mediated efflux-pump activity in mouse L5178Y cells expressing human MDR1 assessed as mean fluorescence intensity at 2 uM preincubated for 10 mins followed by rhodamine-123 addition measured after 20 mins by flow cytometry (reference value: 7.1 to 18.6); format: cell-based
Sequence (P08183 whole entry): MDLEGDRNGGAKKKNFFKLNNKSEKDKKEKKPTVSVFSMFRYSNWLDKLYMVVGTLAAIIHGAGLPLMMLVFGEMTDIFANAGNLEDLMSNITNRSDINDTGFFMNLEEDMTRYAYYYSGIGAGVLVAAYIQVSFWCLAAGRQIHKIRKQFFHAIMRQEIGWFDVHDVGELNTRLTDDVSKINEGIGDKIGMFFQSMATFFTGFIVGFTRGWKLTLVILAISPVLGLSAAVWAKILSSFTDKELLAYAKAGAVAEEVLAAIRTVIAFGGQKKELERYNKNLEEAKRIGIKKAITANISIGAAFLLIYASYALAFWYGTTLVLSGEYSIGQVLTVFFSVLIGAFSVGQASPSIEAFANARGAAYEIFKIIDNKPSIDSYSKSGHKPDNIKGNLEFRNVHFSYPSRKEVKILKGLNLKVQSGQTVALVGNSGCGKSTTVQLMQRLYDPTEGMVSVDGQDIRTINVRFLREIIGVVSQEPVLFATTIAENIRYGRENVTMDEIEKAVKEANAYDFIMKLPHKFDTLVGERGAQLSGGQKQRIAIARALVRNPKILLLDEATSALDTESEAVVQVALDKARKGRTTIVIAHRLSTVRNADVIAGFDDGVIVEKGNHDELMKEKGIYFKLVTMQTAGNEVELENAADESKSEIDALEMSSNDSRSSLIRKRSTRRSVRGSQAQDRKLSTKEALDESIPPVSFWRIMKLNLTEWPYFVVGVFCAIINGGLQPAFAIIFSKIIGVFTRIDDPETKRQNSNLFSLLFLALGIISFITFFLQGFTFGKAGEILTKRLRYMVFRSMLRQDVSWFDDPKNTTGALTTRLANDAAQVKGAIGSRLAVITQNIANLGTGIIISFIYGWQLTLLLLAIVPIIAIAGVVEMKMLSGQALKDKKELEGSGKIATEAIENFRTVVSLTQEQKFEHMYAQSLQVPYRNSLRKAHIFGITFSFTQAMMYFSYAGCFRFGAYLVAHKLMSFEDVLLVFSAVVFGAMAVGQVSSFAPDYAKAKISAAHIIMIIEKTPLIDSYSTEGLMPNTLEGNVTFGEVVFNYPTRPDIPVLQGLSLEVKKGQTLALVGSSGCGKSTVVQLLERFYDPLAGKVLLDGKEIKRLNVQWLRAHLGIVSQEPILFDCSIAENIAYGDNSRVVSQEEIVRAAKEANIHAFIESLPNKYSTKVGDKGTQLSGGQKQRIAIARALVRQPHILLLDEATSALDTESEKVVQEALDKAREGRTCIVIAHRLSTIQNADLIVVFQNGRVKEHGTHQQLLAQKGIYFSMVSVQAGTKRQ
Consider the following molecules and their measured Flu intensity readings.
Answer with a bare number; do not write a unit.

- molecule: "CO[C@H]1C=C2[C@@H](CC[C@H](O)[C@]2(C)CO)[C@]2(C)CC[C@]3(C)[C@@H]([C@H](C)C[C@@H](O)C=C(C)C)CC[C@@]3(C)[C@H]12 [BALSAMINOL B]"
  tested system: "ATP-dependent translocase ABCB1 (Homo sapiens)"
  Flu intensity: 95.7

## Task Flu intensity for CC(C)=C[C@H](O)C[C@@H](C)[C@H]1CC[C@@]2(C)[C@@H]3[C@@H](O)C=C4[C@@H](CC[C@H](O)[C@]4(C)CO)[C@]3(C)CC[C@]12C [BALSAMINOL A] ?
## Result 20.1

## Task Flu intensity for C[C@H](C/C=C/C(C)(C)O)[C@H]1CC[C@@]2(C)[C@@H]3[C@@H](O)C=C4[C@@H](CC[C@H](O)C4(C)C)[C@]3(C)C[C@@H](O)[C@]12C [CUCURBALSAMINOL A] ?
## Result 8.8
